- Tested on: DIPGX37 (H3.3 K27M diffuse intrinsic pontine glioma line)
- ASSAY: growth inhibition (% activity, log2 RLU normalised to DMSO / staurosporine); higher = more growth inhibition
- CONDITIONS_USED: 33 µM
MEASURED_PARAMETER: growth inhibition (%)
Could you give me the number in %? Just the number is fine.

MOLECULE | growth inhibition [%]
O=C(O)c1cn(-c2ccc(F)cc2)c2cc(N3CCNCC3)c(F)cc2c1=O | 0.654
O=C(CCCN1CCN(c2ccccn2)CC1)c1ccc(F)cc1 | 0.83
CN(c1nccc(=O)[nH]1)C1CCN(c2nc3ccccc3n2Cc2ccc(F)cc2)CC1 | 2.96
CC1(C)Cc2c(-c3ccccc3)c(-c3ccc(Cl)cc3)c(CC(=O)O)n2C1 | 3.9
COc1ccc2c(c1OC)C(=O)O[C@@H]2[C@H]1c2c(cc3c(c2OC)OCO3)CCN1C | 0.428

Complete the entry with growth inhibition for CC(CCc1ccc(O)cc1)NCC(O)c1ccc(O)cc1 (stereo not given) 0.666

Complete the entry with growth inhibition for Cc1ccc(-n2[nH]c(C)c(N=Nc3cccc(-c4cccc(C(=O)O)c4)c3O)c2=O)cc1C -1.98

Complete the entry with growth inhibition for CN(CCOc1ccc(NS(C)(=O)=O)cc1)CCc1ccc(NS(C)(=O)=O)cc1 -1.46

Complete the entry with growth inhibition for CO/N=C(\C(=O)N[C@@H]1C(=O)N2C(C(=O)O)=C(Cn3ccc(=N)n3CCO)CS[C@H]12)c1csc(N)n1 1.46

Complete the entry with growth inhibition for CCCCC(=O)N(Cc1ccc(-c2ccccc2-c2nnn[nH]2)cc1)[C@H](C(=O)O)C(C)C -1.28

Complete the entry with growth inhibition for O=c1oc2c(O)c(O)cc3c(=O)oc4c(O)c(O)cc1c4c23 2.55

Complete the entry with growth inhibition for C=CC(=O)N1CCC[C@@H](n2nc(-c3ccc(Oc4ccccc4)cc3)c3c(N)ncnc32)C1 0.894
